- Test system: IGROV-1
- experimentalDetails: NCI tumour cell line growth inhibition, 48 h
The source made the active and inactive calls. Rule as the data show it: active = GI50 up to about 1.1 µM and inactive = higher. Where a SMILES comes first, the peptide text is derived from it. Residues, ends and D or L forms follow the SMILES beside them. The star is where a group is joined. *: point of attachment. Ethyl(2-NMe3+) = C[N+](C)(C)CC*; Cbz = O=C(OCc1ccccc1)*; Boc = CC(C)(C)OC(=O)*; tBu = CC(C)(C)*
Classes used: class 1 (active), class 0 (inactive)

[
  {
    "compound": "C[C@@H]1CCC2[C@@H](C)C(=O)O[C@@H]3C4C[C@@H]1[C@@]23OO[C@@]4(C)O (some centres not stated)",
    "label": "class 0"
  },
  {
    "compound": "O=C1c2c(c3c4ccccc4[nH]c3c3[nH]c4ccccc4c23)C(=O)N1Cc1ccccc1",
    "label": "class 0"
  },
  {
    "compound": "CCOC(=O)c1nc2cc(C(F)(F)F)ccc2nc1Nc1ccc(OC)c(OC)c1",
    "label": "class 0"
  },
  {
    "compound": "Cc1ccc(S(=O)(=O)N/N=C2/CCCOC2)cc1",
    "label": "class 0"
  },
  {
    "compound": "NC(=O)c1nnc2cc(F)ccc2c1N",
    "label": "class 0"
  },
  {
    "compound": "CC(C)Oc1c(N(Cc2ccccc2)c2ccccc2C2SCCCS2)c(=O)c1=O",
    "label": "class 0"
  },
  {
    "compound": "CCOC(=O)c1cc2cc([N+](=O)[O-])ccc2oc1=O",
    "label": "class 0"
  },
  {
    "compound": "Nc1cc(N2CCCC2)nc(=O)n1Cc1ccccc1",
    "label": "class 0"
  },
  {
    "compound": "C#CCNC(=O)N(CC#C)N=O",
    "label": "class 0"
  },
  {
    "compound": "CC1(C)OC2COC3([C@@H]4OC(C)(C)O[C@@H]4CO)OC(C)(C)OC3C2O1 (some centres not stated)",
    "label": "class 0"
  },
  {
    "compound": "Nc1ccn(C2OC(CO)C(O)C2(F)F)c(=O)n1 (configuration not stated)",
    "label": "class 1"
  },
  {
    "compound": "O[C@@]1(C#Cc2ccc3c(c2)OCO3)CCC[C@H]1NCc1ccccc1",
    "label": "class 0"
  },
  {
    "compound": "CC(C)(C)OC(=O)NC(Cc1ccc(OCc2ccccc2)cn1)C(=O)N1CCCC1 (configuration not stated)",
    "label": "class 0"
  },
  {
    "compound": "CC(=O)Nc1ccc2nc(-c3cccc(Cl)c3)cc(O)c2c1",
    "label": "class 0"
  },
  {
    "compound": "CCOC(=O)/C=C(/C(=O)OCC)n1ccc(N)nc1=O",
    "label": "class 0"
  },
  {
    "compound": "C[C@]12CC[C@H]3[C@@H](CC=C4C[C@@H](N5CCCC5)CC[C@@]43C)[C@@H]1C[C@H](N1CCOCC1)[C@@H]2O",
    "label": "class 0"
  },
  {
    "compound": "Clc1ccc(/C(=C/c2ccccc2)Cn2ccnc2)cc1",
    "label": "class 0"
  },
  {
    "compound": "Cc1cc(O)cc2oc(=O)c3c(O)cc(O)cc3c12",
    "label": "class 0"
  },
  {
    "compound": "O=C1C(O)=C(CC=C(Cl)Cl)C(=O)c2ccccc21",
    "label": "class 0"
  },
  {
    "compound": "N#CC1(C#N)N[C@@H](c2ccsc2)[C@H]2C(=O)N(c3ccccc3)C(=O)[C@H]21",
    "label": "class 0"
  },
  {
    "compound": "N#CSc1ccc(S(N)(=O)=O)cc1",
    "label": "class 0"
  },
  {
    "compound": "Cc1cc(S(N)(=O)=O)c(SCc2nc(N)nc(N(C)C)n2)cc1Cl",
    "label": "class 0"
  },
  {
    "compound": "CC(=O)Nc1ccc2nncnc2c1",
    "label": "class 0"
  },
  {
    "compound": "COC(=O)/C=C1/OC(c2ccccc2)=C(C)C1=O",
    "label": "class 0"
  },
  {
    "compound": "Nc1nc2c3c(ncn3CC(O)CO2)n1 (configuration not stated)",
    "label": "class 0"
  },
  {
    "compound": "CC(NC(=O)C(Cc1ccc(OCC[N+](C)(C)C)cc1)NC(=O)OC(C)(C)C)C(=O)NC(Cc1ccccc1)C(=O)NCC(N)=O (configuration not stated) (Boc-Y(Ethyl(2-NMe3+))AFG-NH2; configuration not given here)",
    "label": "class 0"
  },
  {
    "compound": "COc1oc(C(=O)NC2CCCCC2)c(-c2ccc(Cl)cc2)c1S(=O)(=O)c1ccccc1",
    "label": "class 0"
  },
  {
    "compound": "O=C(O)c1cccc(SSc2cccc(C(=O)O)c2)c1",
    "label": "class 0"
  },
  {
    "compound": "CC(OC(C)(C)C)C(NC(=O)C(CCCCNC(=O)OC(C)(C)C)NC(=O)C(Cc1c[nH]c2ccccc12)NC(=O)C(Cc1ccccc1)NC(=O)OCc1ccccc1)C(=O)NC(Cc1ccccc1)C(=O)O (configuration not stated) (Cbz-FWK(Boc)T(tBu)F-OH; configuration not given here)",
    "label": "class 0"
  },
  {
    "compound": "CCCCCCCCC(=O)N(C)C1C2CN3CCC(O2)C13 (configuration not stated)",
    "label": "class 0"
  },
  {
    "compound": "Fc1ccccc1C1CC(c2ccc3ccccc3c2)=Nc2ccccc2S1 (configuration not stated)",
    "label": "class 0"
  },
  {
    "compound": "c1ccc(C(Oc2noc3ccccc23)c2ccccc2)cc1",
    "label": "class 0"
  },
  {
    "compound": "Cc1cc(C)nc(NS(=O)(=O)c2ccc(Nc3c4ccccc4nc4c(C(=O)NCCCN(CCO)CCO)cccc34)cc2)n1",
    "label": "class 0"
  },
  {
    "compound": "C/C=C(/CCC1NCCC2c3ccccc3NC12)[Si](C)(C)C (configuration not stated)",
    "label": "class 0"
  },
  {
    "compound": "N#Cc1ccc(-c2nc3cc(Cl)ccc3[nH]2)cc1",
    "label": "class 0"
  },
  {
    "compound": "Cc1cccc(C(O)c2ccccn2)c1O (configuration not stated)",
    "label": "class 0"
  },
  {
    "compound": "CN1C(=O)CN(NC(=O)C2=C(O)c3ccc(Br)cc3S(=O)(=O)N2)C1=S",
    "label": "class 0"
  }
]
